Data provenance is paper PMC12136037.

Please respond with reported dTm for every item in the list.
- Subject Of Test: ~100 representative kinases (Homo sapiens, UniProt P29317)
- Construct: Recombinant protein kinase domains with a concentration of 2 μM
- Sequence (P29317 24-976): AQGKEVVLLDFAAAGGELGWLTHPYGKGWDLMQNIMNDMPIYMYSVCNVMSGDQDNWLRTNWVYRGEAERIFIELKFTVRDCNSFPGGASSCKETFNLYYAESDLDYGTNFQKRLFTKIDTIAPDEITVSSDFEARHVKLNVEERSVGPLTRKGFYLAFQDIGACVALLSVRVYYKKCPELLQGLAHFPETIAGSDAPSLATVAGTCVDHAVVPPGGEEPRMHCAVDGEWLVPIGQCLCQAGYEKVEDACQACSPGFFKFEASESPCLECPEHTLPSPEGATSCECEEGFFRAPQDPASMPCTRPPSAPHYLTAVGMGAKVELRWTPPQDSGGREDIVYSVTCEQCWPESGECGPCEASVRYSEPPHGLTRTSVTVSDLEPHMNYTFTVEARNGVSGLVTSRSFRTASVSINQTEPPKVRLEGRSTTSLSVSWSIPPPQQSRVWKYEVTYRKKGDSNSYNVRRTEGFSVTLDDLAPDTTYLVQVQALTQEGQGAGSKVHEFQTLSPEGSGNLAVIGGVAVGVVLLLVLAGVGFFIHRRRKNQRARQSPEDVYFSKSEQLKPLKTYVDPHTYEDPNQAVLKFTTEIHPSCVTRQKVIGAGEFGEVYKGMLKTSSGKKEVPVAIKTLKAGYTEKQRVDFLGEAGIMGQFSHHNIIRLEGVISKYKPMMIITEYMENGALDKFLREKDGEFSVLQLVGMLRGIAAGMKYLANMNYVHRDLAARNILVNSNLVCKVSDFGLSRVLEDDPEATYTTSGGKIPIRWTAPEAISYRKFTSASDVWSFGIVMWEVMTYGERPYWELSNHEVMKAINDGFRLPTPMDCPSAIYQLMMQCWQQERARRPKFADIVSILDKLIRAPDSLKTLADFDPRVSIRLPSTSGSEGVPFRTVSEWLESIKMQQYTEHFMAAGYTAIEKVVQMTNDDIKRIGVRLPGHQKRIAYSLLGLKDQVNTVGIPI
- Assay Text: DSF 100 kinase selectivity screen;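 further: compound tested at 20 µM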
- Format: binding
- Assay Setup: Protein EPHA2; average of three replicates
One number for each entry, in K.

>>> observed_measurement("Cc1ccc(-n2nc(C(C)(C)C)cc2NC(=O)Nc2cccc(-c3c[nH]c4nc(Cl)nc(N5CCOCC5)c34)c2)cc1 [Compound 30]")
3.08
>>> observed_measurement("O=C(Nc1cccc(-c2c[nH]c3ncnc(N4CCOCC4)c23)c1)C1(C(=O)Nc2ccc(F)c(F)c2)CC1 [Compound 17]")
4.47
>>> observed_measurement("Cn1cc(-c2c[nH]c3ncnc(N4CCOCC4)c23)cc1C#N [PFE-360]")
0.68

Next up:
For COc1cc(C(=O)N2CCOCC2)c(F)cc1Nc1nc(N(C)C)c2c(Cl)c[nH]c2n1 [Compound 36] , what is its reported dTm?
-0.10
